- ASSAY_EXPLANATION: Gravimetric solubility measurement in solvents
- Assay type: physicochemical
- COND: organic solvent or mixture, thermodynamic from solid; Acetone:water (95:5); 15° C.; slurried 3 days; read-out: Solubility at 15° C.
OUTCOME_MEASURE: solubility at 3 days (µg/mL)
Write the number in µg/mL without appending the unit.

Query string: Tell me its solubility at 3 days given CC(C)(C)c1[nH]cnc1/C=c1\[nH]c(=O)/c(=C/c2ccccc2)[nH]c1=O [plinabulin monohydrate] as the entry.
Result string: 6000

* * *

- ASSAY_EXPLANATION: Gravimetric solubility measurement in solvents
- Assay type: physicochemical
- COND: organic solvent or mixture, thermodynamic from solid; MeOH; 15° C.; slurried 3 days; read-out: Solubility at 15° C.
OUTCOME_MEASURE: solubility at 3 days (µg/mL)
Write the number in µg/mL without appending the unit.

Query string: Tell me its solubility at 3 days given CC(C)(C)c1[nH]cnc1/C=c1\[nH]c(=O)/c(=C/c2ccccc2)[nH]c1=O [plinabulin monohydrate] as the entry.
Result string: 5000

* * *

- ASSAY_EXPLANATION: Gravimetric solubility measurement in solvents
- Format: physicochemical
- COND: organic solvent or mixture, thermodynamic from solid; EtOH:water (95:5); 15° C.; slurried 3 days; read-out: Solubility at 15° C.
OUTCOME_MEASURE: solubility at 3 days (µg/mL)
Write the number in µg/mL without appending the unit.

Query string: Tell me its solubility at 3 days given CC(C)(C)c1[nH]cnc1/C=c1\[nH]c(=O)/c(=C/c2ccccc2)[nH]c1=O [plinabulin monohydrate] as the entry.
Result string: 4000

* * *

- ASSAY_EXPLANATION: Gravimetric solubility measurement in solvents
- Type: physicochemical
- COND: organic solvent or mixture, thermodynamic from solid; EtOH; 15° C.; slurried 3 days; read-out: Solubility at 15° C.
OUTCOME_MEASURE: solubility at 3 days (µg/mL)
Write the number in µg/mL without appending the unit.

Query string: Tell me its solubility at 3 days given CC(C)(C)c1[nH]cnc1/C=c1\[nH]c(=O)/c(=C/c2ccccc2)[nH]c1=O [plinabulin monohydrate] as the entry.
Result string: 5000

* * *

- ASSAY_EXPLANATION: Gravimetric solubility measurement in solvents
- Assay type: physicochemical
- COND: organic solvent or mixture, thermodynamic from solid; EtOH; 45° C.; slurried 3 days; read-out: Solubility at 45° C.
OUTCOME_MEASURE: solubility at 3 days (mg/mL)
Write the number in mg/mL without appending the unit.

Query string: Tell me its solubility at 3 days given CC(C)(C)c1[nH]cnc1/C=c1\[nH]c(=O)/c(=C/c2ccccc2)[nH]c1=O [plinabulin monohydrate] as the entry.
Result string: 13

* * *

- ASSAY_EXPLANATION: Gravimetric solubility measurement in solvents
- Format: physicochemical
- COND: organic solvent or mixture, thermodynamic from solid; Heptane; 45° C.; slurried 3 days; read-out: Solubility at 45° C.
OUTCOME_MEASURE: solubility at 3 days (µg/mL)
Write the number in µg/mL without appending the unit.

Query string: Tell me its solubility at 3 days given CC(C)(C)c1[nH]cnc1/C=c1\[nH]c(=O)/c(=C/c2ccccc2)[nH]c1=O [plinabulin monohydrate] as the entry.
Result string: 3000

* * *

- ASSAY_EXPLANATION: Gravimetric solubility measurement in solvents
- Assay type: physicochemical
- COND: organic solvent or mixture, thermodynamic from solid; ACN; 15° C.; slurried 3 days; read-out: Solubility at 15° C.
OUTCOME_MEASURE: solubility at 3 days (µg/mL)
Write the number in µg/mL without appending the unit.

Query string: Tell me its solubility at 3 days given CC(C)(C)c1[nH]cnc1/C=c1\[nH]c(=O)/c(=C/c2ccccc2)[nH]c1=O [plinabulin monohydrate] as the entry.
Result string: 3000

Every entry's value here was drawn from patent US11254657B2.
